- target under test: T1, human MAdCAM expressed on cells (human, UniProt Q13477 19-382)
- T1 construct: whole, on cells; also called MADCAM1
- T1 sequence (looked up): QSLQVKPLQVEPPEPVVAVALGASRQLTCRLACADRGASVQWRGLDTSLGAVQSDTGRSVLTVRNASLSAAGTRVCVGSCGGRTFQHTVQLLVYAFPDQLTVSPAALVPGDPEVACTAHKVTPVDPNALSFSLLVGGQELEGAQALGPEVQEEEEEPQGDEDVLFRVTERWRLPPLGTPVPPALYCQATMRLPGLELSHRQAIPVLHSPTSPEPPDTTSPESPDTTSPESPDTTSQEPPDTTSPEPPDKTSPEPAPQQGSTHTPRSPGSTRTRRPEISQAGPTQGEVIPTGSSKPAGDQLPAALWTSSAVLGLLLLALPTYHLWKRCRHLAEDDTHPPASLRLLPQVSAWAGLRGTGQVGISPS
- experiment description: cell binding

- binder: "MAdCAM antibody Clone ID 15 of Table 6 (scFv) (scFv) scFv: QVQLVQSGAEVKKPGSSVKVSCKASGYTFTNYYMHWVRQAPGQGLEWMGGIIPIVDRVKYAQKFQGRVTITADESTSTAYMELSSLRSEDTAVYYCAKGRYTVNYYYGMDVWGQGTTVTVSSGGGGSGGGGSGGGGSGGGGSDIQMTQSPSSLSASVGDRVTITCQANQDISNYLNWYQQKPGKAPKLLIYRASKLEAGVPSRFSGSGSGTDFTLTISSLQPEDFATYYCQQSSEIPYSFGQGTKLEIK"
  binding result: "binds"
- binder: "MAdCAM antibody Clone ID 10 of Table 6 (scFv) (scFv) scFv: QVQLVQSGAEVKKPGASVKVSCKASGYTLTTWYMYWVRQAPGQGLEWMGWINPNRGATNYAQKFQGRVTMTRDTSTSTVYMELSSLRSEDTAVYYCAKGDLWGAMDVWGQGTLVTVSSGGGGSGGGGSGGGGSGGGGSDIQMTQSPSSLSASVGDRVTITCRASDNIGSWLAWYQQKPGKAPKLLIYAASSLQSGVPSRFSGSGSGTDFTLTISSLQPEDFATYYCQQGYSTPPTFGQGTKVEIK"
  binding result: "binds"
- binder: "MAdCAM antibody Clone ID 59 of Table 6 (scFv) (scFv) scFv: EVQLLESGGGLVQPGGSLRLSCAASGFTFSDFWMHWVRQAPGKGLEWISYISGDSGYTNYADSVKGRFTISRDNSKNTLYLQMNSLRAEDTAVYYCARDRPYYYYMDVWGKGTTVTVSSGGGGSGGGGSGGGGSGGGGSDIQMTQSPSSLSASVGDRVTITCRASQSVSRSLAWYQQKPGKAPKLLIYAASSLQSGVPSRFSGSGSGTDFTLTISSLQPEDFATYYCQQYKSYPVTFGQGTKVEIK"
  binding result: "binds"
- binder: "MAdCAM antibody Clone ID 42 of Table 6 (scFv) (scFv) scFv: QVQLVQSGAEVKKPGSSVKVSCKASGGTLSRYGVSWVRQAPGQGLEWMGGIIPIFGTTNYAQKFQGRVTITADESTSTAYMELSSLRSEDTAVYYCARDRVYYDSSGYPTWYFDLWGRGTLVTVSSGGGGSGGGGSGGGGSGGGGSEIVMTQSPATLSVSPGERATLSCRASQSVSSSYLAWYQQKPGQAPRLLIYGASTRATGIPARFSGSGSGTEFTLTISSLQSEDFAVYYCQQYGSSPITFGQGTKVEIK"
  binding result: "binds"
- binder: "MAdCAM antibody Clone ID 36 of Table 6 (scFv) (scFv) scFv: QVQLVQSGAEVKKPGASVKVSCKASGYTFTGHYMHWVRQAPGQGLEWMGIINPSGGSTSYAQKFQGRVTMTRDTSTSTVYMELSSLRSEDTAVYYCARDTGYSYGRYYYYGMDVWGQGTTVTVSSGGGGSGGGGSGGGGSGGGGSDIQMTQSPSSLSASVGDRVTITCRASQSIGRWLAWYQQKPGKAPKLLIYDASNLQSGVPSRFSGSGSGTDFTLTISSLQPEDFATYYCQQSYSIPITFGGGTKVEIK"
  binding result: "binds"
